fluorescence slope values for the molecules below.
system-tested: Voltage-gated potassium channel subunit beta-2 (Rattus norvegicus) (UniProt P62483)
Sequence (P62483 whole entry, looked up): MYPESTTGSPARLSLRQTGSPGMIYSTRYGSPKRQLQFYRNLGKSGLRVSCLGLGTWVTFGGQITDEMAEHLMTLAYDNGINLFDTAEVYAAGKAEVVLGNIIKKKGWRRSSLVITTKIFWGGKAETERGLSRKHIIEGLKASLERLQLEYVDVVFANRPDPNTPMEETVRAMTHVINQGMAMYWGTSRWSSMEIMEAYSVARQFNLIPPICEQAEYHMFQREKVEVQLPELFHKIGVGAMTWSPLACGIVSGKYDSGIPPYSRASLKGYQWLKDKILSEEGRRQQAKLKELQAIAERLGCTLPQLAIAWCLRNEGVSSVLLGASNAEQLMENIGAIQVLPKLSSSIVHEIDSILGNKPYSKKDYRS
assay-text: inhibitors of rat Kvbeta2 reductase activity – biochemical, NADPH fluorescence, primary screen (AID 622);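 also: slope of raw intensity against log time taken from 70 to 1610 s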
condition-info: recombinant KvBeta, 4-cyanobenzaldehyde reduction, at 10 µM, stronger effect = higher value
Hey, just send me the number, nothing else.

{"columns": ["molecule", "recorded-result"],
 "data": [
  ["Cc1nnc(NC(=O)c2ccccc2F)s1", -0.614],
  ["CCCC1(C(=O)OCC)NC(c2ccc(N(C)C)cc2)C2C(=O)N(c3ccccc3)C(=O)C21 (stereo not given)", -0.465],
  ["C/C(=C\\C(=O)c1ccc(F)cc1)Nc1ccc(N2CCOCC2)cc1", -0.532],
  ["CCCN1CCN(CCCNC(=O)Cn2nc(-c3ccc(Cl)cc3)ccc2=O)CC1", -0.552]
]}

Let's switch to this molecule now.
Ask: Write down the reported fluorescence slope of "O=C(Cn1c(=O)[nH]c2ccsc2c1=O)N1CCN(c2ccc(F)cc2)CC1" , test system: Voltage-gated potassium channel subunit beta-2 (Rattus norvegicus) (UniProt P62483).
Reply: -0.451

----------
assay-text: endothelial E-selectin expression blockers – imaging, HUVEC, immunofluorescence, MLSMR starter and 10KST1 sets, primary screen (AID 487);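 also: signal is fraction of cell area covered by stained E-selectin grains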
condition-info: HUVEC TNFalpha-induced E-selectin immunofluorescence imaging, at 2 µM; stronger effect = higher value
property-label: inhibition (%)
Write down the numeric answer in % and omit the unit.

{"columns": ["compound", "inhibition [%]"],
 "data": [
  ["CC1(C)C2CCC1(C)C(OC(=O)CSc1nc(N)cc(=O)[nH]1)C2 (stereo unspecified)", -343]
]}

Query compound follows.
Ask: Give the measured inhibition of CCOC(=O)C1CCCN(C(=O)c2cc(=O)c3ccccc3o2)C1 (stereo unspecified) .
Reply: -38.4

----------
assay-text: endothelial E-selectin expression blockers – imaging, HUVEC, immunofluorescence, MLSMR starter and 10KST1 sets, primary screen (AID 487);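 also: signal is fraction of cell area covered by stained E-selectin grains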
condition-info: HUVEC TNFalpha-induced E-selectin immunofluorescence imaging, at 2 µM; stronger effect = higher value
property-label: inhibition (%)
State just the number; it will be interpreted in %.

Previously resolved entries follow.
{"columns": ["compound", "recorded-result"],
 "data": [
  ["CCOC(=O)c1ccc(N2C(=O)C3CC=CCC3C2=O)cc1 (configuration not stated)", 40.6],
  ["Cc1cc(C)c2c(n1)nn1c(NCCCN3CCOCC3)cc(C)nc21", -19.1],
  ["CCOC(=O)c1sc2nc(SCC#N)n(CCCN3CCCC3=O)c(=O)c2c1C", 49],
  ["COc1ccc(C(=O)c2coc3ccc(O)c(CN4CCCCC4)c23)cc1", -25.2],
  ["COc1ccc(OC)c(C2CC(=O)NC(SC)=C2C#N)c1 (configuration not stated)", -23.1]
]}

Okay, next one:
Ask: Can you look up the measured inhibition of "COC(=O)C1=CN(C)C=C(C(=O)OC)C1c1ccc(O)c(OC)c1" for me?
Reply: 7.6

----------
assay-text: reduction of polyQ htt aggregates in cells – imaging, exon1htt(103Q)mCFP cells, high-content imaging, primary screen (AID 483);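 also: compound exposure lasted 3 days before fixation; percent of the per-plate median nuclei count of sample wells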
condition-info: exon1htt(103Q)mCFP cell line, aggregate imaging, at 2 µM; measured here: cell count, toxicity
property-label: nuclei count

Completed entries (count: 5):
{"columns": ["molecule", "nuclei count"],
 "data": [
  ["CCOC(=O)N1CCC(NC(=O)Cn2cc3c(n2)CCC(C)C3)CC1 (stereo not given)", "108%"],
  ["CCOCCCNC(=O)C(c1ccccc1)N(Cc1ccc2c(c1)OCO2)C(=O)CNC(C)=O (stereo not given)", "94.8%"],
  ["COc1ccc2c(C(F)(F)F)cc(=O)oc2c1C", "99.9%"],
  ["Cc1cc(NC(=O)CCC(=O)N(CCc2ccccc2)C(C(=O)NC2CCCC2)c2ccco2)no1 (stereo not given)", "102%"],
  ["N#CCSc1nc(-c2ccccc2)cs1", "103%"]
]}

Ask: May I ask what nuclei count has been recorded for CCOC(=O)C1CCCN(C(=O)c2cc3c(C)nc4ccccc4c3o2)C1 (stereo not given) ?
Reply: 100%

Ask: Query: nuclei count; subject: "CCN(CC)c1ccc(C(=O)n2cnc3ccccc32)cc1"
Reply: 95.4%

Ask: Which nuclei count is listed for "Cc1ccccc1NC(=O)CSc1nnc(Cc2cccn2C)n1-c1ccc(F)cc1" ?
Reply: 98.8%

Ask: Param item = COc1ccc(-n2nc(C(=O)NCC(=O)NCC3CCCO3)c3ccccc3c2=O)cc1 (stereo not given) ; retrieve measured nuclei count.
Reply: 91.3%

Ask: Data request, read-out nuclei count, for Cn1c(=O)[nH]c(=O)c2c1nc(N1CCOCC1)n2CC(O)COc1ccc2ccccc2c1 (stereo not given)
Reply: 107%

Ask: Which value of nuclei count has been reported for "CC(=O)Nc1ccc(NC(=O)c2ccccc2N(C)S(C)(=O)=O)cc1" in the records?
Reply: 111%

Ask: Which nuclei count value is on record for "CCCNC(=O)C1CCN(S(=O)(=O)c2ccc3nc4c(c(C(=O)O)c3c2)CCCCC4)CC1" ?
Reply: 119%
